Origin of measurements: the RNAGym collection of RNA variant scans (doi:10.7554/elife.90254)

B1: OR4K15 (parent)
chain: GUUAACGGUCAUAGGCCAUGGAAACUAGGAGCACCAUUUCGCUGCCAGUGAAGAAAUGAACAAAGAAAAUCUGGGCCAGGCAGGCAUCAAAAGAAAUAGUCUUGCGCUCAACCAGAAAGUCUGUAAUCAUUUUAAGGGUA

# Variants of: B1
# experimental.protocol: self-cleavage, relative activity (ratio to wild type); higher = more cleavage; in vitro, sequencing; the parent is a self-cleaving ribozyme
Decide using self-cleavage: a value greater than or equal to 1 is yes, a smaller one is no.

variant.label	group.label
A52C A91G	yes
U39C U43C	yes
U108C C112U	no
A55G G93U	yes
C81U A96G	no
U43C U100C	yes
G21U U87C	yes
A24C A125U	yes
U57A A63G	yes
A78U U130C	no
U9C A59G	yes
A13G A63G	no
G58U U124C	no
U2C U12G	no
A60G G83A	yes
A56U C128A	yes
A47G A52G	no
A18G G80U	no
U49A U139C	yes
A5U G15A	yes
A110G A114G	no
C32U A51G	yes
U2C A78G	no
A23G A111U	no
A30G A126U	no
U19C A114U	no
A52G U108A	no
A52G A55C	yes
A89G A118C	no
C35A A129G	yes
U72A U131C	no
C6A A89C	yes
G41C A64U	yes
A52G G79A	no
U3A A36G	no
U97C A114U	no
G8A U102C	yes
U38G A47G	yes
C35U C71U	no
U39C A47G	yes
A59C U127A	yes
U102C A125G	yes
U2C U100C	yes
U70C A126U	no
A62U A111U	no
